# System Under Test: T1, biotinylated CRH (human and mouse, UniProt P01143 145-185 (rat entry), not fully specified; biotin; which end is not stated for the result (NT-biotin and CT-biotin forms were used))
# T1 construct: also called biotin-CRH; CRH (NT biotin)
# T1 peptide: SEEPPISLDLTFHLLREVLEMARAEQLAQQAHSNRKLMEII
# Method Summary: ELISA, CRH (NT biotin)
# Protocol: Streptavidin (Thermo, Cat: 21125) was diluted in PBS to a concentration of 2 μg/ml. 100 μl of diluted streptavidin was added per well to ELISA microplates, and the plates were incubated overnight at 4° C. […] 100 μL of ELISA stopping solution (Solarbio, Cat #: C1058) was added to terminate the reaction, and the optical density at 450 nm (OD450 nm) was determined by an ELISA plate reader (Molecular Devices, Spectra max 384 plus). […]
Each entry below carries its recorded EC50 (read off the curve).
Property Label: EC50 (read off the curve)

* PR005657 (antibody, human IgG1, kappa, V domains shown) VH: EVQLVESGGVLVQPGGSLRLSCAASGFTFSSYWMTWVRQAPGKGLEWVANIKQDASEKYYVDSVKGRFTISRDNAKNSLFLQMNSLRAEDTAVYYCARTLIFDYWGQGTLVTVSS VL: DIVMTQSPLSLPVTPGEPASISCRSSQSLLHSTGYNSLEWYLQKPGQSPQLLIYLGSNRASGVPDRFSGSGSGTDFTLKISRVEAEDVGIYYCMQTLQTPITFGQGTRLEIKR | ~30 pM
* PR005658 (antibody, human IgG1, kappa, V domains shown) VH: EVQLVESGGVLVQPGGSLRLSCAASGFTFSSYWMTWVRQAPGKGLEWVANIKQDGSEKYYVDSVKGRFTISRDNAKNSLFLQMNSLRAEDTAVYYCARTLIFDYWGQGTLVTVSS VL: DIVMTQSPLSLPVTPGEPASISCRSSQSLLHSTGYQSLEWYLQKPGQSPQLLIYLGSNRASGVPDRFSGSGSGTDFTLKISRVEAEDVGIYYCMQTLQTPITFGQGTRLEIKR | ~30 pM
* PR005660 (antibody, human IgG1, kappa, V domains shown) VH: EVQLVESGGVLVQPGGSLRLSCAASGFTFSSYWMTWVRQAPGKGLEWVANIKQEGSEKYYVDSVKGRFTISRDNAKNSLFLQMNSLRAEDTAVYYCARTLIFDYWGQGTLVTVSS VL: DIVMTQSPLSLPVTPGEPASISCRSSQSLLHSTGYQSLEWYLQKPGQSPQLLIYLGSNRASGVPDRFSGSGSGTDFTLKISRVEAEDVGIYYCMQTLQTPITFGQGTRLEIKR | ~30 pM
